Let's look at some molecules and their measured % released of total reference value.
# protocolDetails: RFU comparison of solutions to release OsteoSense 750 from HA
# protocolConditions: 10% solution, 15 minutes at 37° C.
Express your answer in %, writing the number without its unit.

Task: Please report the recorded % released of total reference value for O=P([O-])([O-])O.[Na+].[Na+] [sodium phosphate dibasic (D), sodium phosphate dibasic] .
Output: 31.69

====

Let's look at some compounds and their measured % released of total OsteoSense.
# protocolDetails: RFU comparison of solutions to release OsteoSense 750 from HA
# protocolConditions: 1% solution, pH 6.5, room temperature
Express your answer in %, writing the number without its unit.

Sample answers from the record:
> print(dat)
                                   compound  uom  measured
1  O=P(O)(O)CP(=O)(O)O [methylene phosphoric acid (MDP), methylene phosphoric acid]    %      3.59
2  O=P([O-])(O)O.[Na+] [sodium phosphate monobasic (M), sodium phosphate monobasic]    %      6.36
3  O=P(O)(O)O [phosphoric acid (PA), phosphoric acid]    %      6.17

Then there is this compound:
Task: Please report the recorded % released of total OsteoSense for O=P([O-])([O-])O.[Na+].[Na+] [sodium phosphate dibasic (D), sodium phosphate dibasic] .
Output: 1.81
